Exercise: state measured hCD71, RLU for each of the binders provided.
# target.or.test.system: T1, human CD71 extracellular domain (human, UniProt P02786 89-760)
# T1 construct: also called hCD71; human CD71-ECD
# T1 sequence (P02786 89-760): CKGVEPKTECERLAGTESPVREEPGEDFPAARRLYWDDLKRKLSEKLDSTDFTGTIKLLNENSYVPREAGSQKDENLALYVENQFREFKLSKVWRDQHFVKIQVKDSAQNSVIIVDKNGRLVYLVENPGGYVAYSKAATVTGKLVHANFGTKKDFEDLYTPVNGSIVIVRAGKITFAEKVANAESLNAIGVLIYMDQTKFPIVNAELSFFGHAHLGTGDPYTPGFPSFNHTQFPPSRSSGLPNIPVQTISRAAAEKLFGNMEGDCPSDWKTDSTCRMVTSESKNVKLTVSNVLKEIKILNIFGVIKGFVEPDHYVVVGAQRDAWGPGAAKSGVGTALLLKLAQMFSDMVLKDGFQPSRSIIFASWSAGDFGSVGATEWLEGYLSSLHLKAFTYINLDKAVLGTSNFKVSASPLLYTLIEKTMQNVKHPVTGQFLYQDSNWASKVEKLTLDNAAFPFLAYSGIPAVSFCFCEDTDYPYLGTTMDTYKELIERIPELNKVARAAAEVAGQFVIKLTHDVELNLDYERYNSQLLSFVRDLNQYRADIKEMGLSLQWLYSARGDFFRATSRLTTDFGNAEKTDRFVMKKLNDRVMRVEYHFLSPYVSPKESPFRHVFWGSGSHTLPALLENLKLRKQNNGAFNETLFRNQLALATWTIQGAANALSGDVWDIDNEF
# experiment: primary ELISA of colonies, luminescence; also: test concentration or dose not given here
Write it as a number; the unit RLU goes unstated.

binder CD71-binding FN3 domain of SEQ ID NO: 102 (designed binder, Screen 1 hit, tested from colonies in the primary ELISA; not shown: C-terminal poly-histidine tag added to each FN3 domain) MLPAPKNLVVSRVTEDSARLSWTAPDAAFDSFDIGYTEYGGYGEAIILQVPGSERSYDLTGLKPGTEYWVLIQGVKGGGSSVPLVAYFTT , hCD71, RLU observed: 308000

CD71-binding FN3 domain of SEQ ID NO: 112 (designed binder, Screen 1 hit, tested from colonies in the primary ELISA; not shown: C-terminal poly-histidine tag added to each FN3 domain) MLPAPKNLVVSRVTEDSARLSWTAPDAAFDSFFIGYLEPQPPGEAIDLWVPGSERSYDLTGLKPGTEYNVTIQGVKGGFPSMPLSAIFTT has a reported hCD71, RLU of 5.41e+06

response.value for CD71-binding FN3 domain of SEQ ID NO: 104 (designed binder, Screen 1 hit, tested from colonies in the primary ELISA; not shown: C-terminal poly-histidine tag added to each FN3 domain) MLPAPKNLVVSRVTEDSARLSWTAPDAAFDSFFIGYLEPQPPGEAIHLIVPGSERSYDLTGQKPGTEYNVTIQGVKGGFPSDPLVASFTT (field: hCD71, RLU) = 6.36e+06

// recorded hCD71, RLU for CD71-binding FN3 domain of SEQ ID NO: 110 (designed binder, Screen 1 hit, tested from colonies in the primary ELISA; not shown: C-terminal poly-histidine tag added to each FN3 domain) MLPAPKNLVVSRVTEDSARLSWTAPDAAFDSFHIVYHEPRPSGEAIYLEVPGSERSYDLTGLKPGTEYEVGIVSVKGGDLSVPLRAHFTT : 5.17e+06

This collection of values is drawn from patent US20260151494A1.
